B1: Gamma-crystallin D, residues 90 to 170; numbered along this chain, P07320 (parent)
chain: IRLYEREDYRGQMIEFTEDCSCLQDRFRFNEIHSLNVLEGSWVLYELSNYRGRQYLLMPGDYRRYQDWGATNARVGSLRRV

# Variants of: B1
# ASSAY REMARKS: abundance fitness (aPCA) (normalised: wild type 0, dead -1); higher = more abundant; growth selection in yeast, the domain comes from the species named
# CONDITION SUMMARY: Homo sapiens
Met means recorded abundance fitness is -0.07 or above; Not met means it is below -0.07.

C20T | Met

Identify whether the reported abundance fitness of the following variant is -0.07 or greater: L44Y
Not met

Item E46M with abundance fitness of -0.07 or above?
Not met

Could you tell me if the measured abundance fitness of R53M reaches -0.07 or more?
Met

In plain terms: is recorded abundance fitness at least -0.07 for E39P ?
Not met

Reported abundance fitness reaches at least -0.07 for V37K ?
Not met
